Where do the numbers come from? From ChEMBL document CHEMBL1156707.

# assayProcedure: Increase in insulin releasing activity in Syrian golden hamster HIT-T15 cells at 1 uM after 1 hr relative to control
# Type: functional, Mesocricetus auratus
outcomeMeasure: Activity (%)

In [3]: df
Out[3]:
                                    compound  outcomemeasure  u  observedmeasurement
 0  CC(C)[C@H]1CC[C@H](C(=O)N[C@H](Cc2ccc(O)cc2)C(=O)O)CC1        Activity  %                 34.2
 1  CC(C)[C@H]1CC[C@H](C(=O)N[C@H](Cc2ccc(OCc3ccccc3)cc2)C(=O)O)CC1        Activity  %                 38.9
 2  CC(C)[C@H]1CC[C@H](C(=O)N[C@@H](Cc2ccc(OCCN(C)c3ccccn3)cc2)C(=O)O)CC1        Activity  %                   26
 3  CC(C)[C@H]1CC[C@H](C(=O)N[C@@H](Cc2ccc(OCc3ccccc3)cc2)C(=O)O)CC1        Activity  %                 53.1
 4  CC(C)[C@H]1CC[C@H](C(=O)N[C@H](Cc2ccc(OCCN(C)c3ccccn3)cc2)C(=O)O)CC1        Activity  %                 24.4
 5  CC(C)[C@H]1CC[C@H](C(=O)N[C@@H](Cc2ccc(OCCn3ccc4ccccc43)cc2)C(=O)O)CC1        Activity  %                 35.7
 6  CC(C)[C@H]1CC[C@H](C(=O)N[C@@H](Cc2ccc(OCCN(C)c3nc4ccccc4o3)cc2)C(=O)O)CC1        Activity  %                 35.5
 7  CCOc1ccc(C[C@@H](NC(=O)[C@H]2CC[C@H](C(C)C)CC2)C(=O)O)cc1        Activity  %                 76.2
 8  CC(C)[C@H]1CC[C@H](C(=O)N[C@@H](Cc2ccc(OCc3ccc(C(F)(F)F)cc3)cc2)C(=O)O)CC1        Activity  %                 47.9
 9  CC(C)[C@H]1CC[C@H](C(=O)N[C@@H](Cc2ccc(O)cc2)C(=O)O)CC1        Activity  %                 17.5
10  CCCCOc1ccc(C[C@@H](NC(=O)[C@H]2CC[C@H](C(C)C)CC2)C(=O)O)cc1        Activity  %                 58.9
11  CC(C)[C@H]1CC[C@H](C(=O)N[C@H](Cc2ccc(OCCN(C)c3nc4ccccc4o3)cc2)C(=O)O)CC1        Activity  %                 24.8
12  CC(C)[C@H]1CC[C@H](C(=O)N[C@H](Cc2ccccc2)C(=O)O)CC1 [NATEGLINIDE]        Activity  %                 36.3
